Assay: Acute toxicity in rat
Details: in vivo, po; p.o. rat
property: LD50

[[record]]
structure_string = "COc1cc(Cc2cnc(N)nc2N)c2c(c1OC)OCC=C2"
property = "LD50"
reported_measurement = "> 1000 mg/kg"


----------
Test system: Esch. coli CN314
# MIC per record follows
property: MIC (µg/mL)

[[record]]
compound = "COc1cc(Cc2cnc(N)nc2N)c2c(c1OC)OC(C)C=C2 (stereo not shown)"
unit_annotation = "µg/mL"
reported_measurement = 0.1

[[record]]
compound = "Cc1cc(Cc2cnc(N)nc2N)c2cccnc2c1N(C)C.Cl.Cl"
unit_annotation = "µg/mL"
reported_measurement = 0.1

[[record]]
compound = "COc1cc(Cc2cnc(N)nc2N)cc(OC)c1OC [TMP, reference compound]"
unit_annotation = "µg/mL"
reported_measurement = 0.05

[[record]]
compound = "COc1cc(Cc2cnc(N)nc2N)c2c(c1OC)OCC=C2"
unit_annotation = "µg/mL"
reported_measurement = 0.05

[[record]]
compound = "COc1cc(Cc2cnc(N)nc2N)c2ccncc2c1N.Cl.Cl"
unit_annotation = "µg/mL"
reported_measurement = 0.05

[[record]]
compound = "COc1cc(Cc2cnc(N)nc2N)c2cccnc2c1SC"
unit_annotation = "µg/mL"
reported_measurement = 0.1

[[record]]
compound = "COc1cc(Cc2cnc(N)nc2N)c2cccnc2c1N.Cl.Cl"
unit_annotation = "µg/mL"
reported_measurement = 0.1

